Overview of reported A570 nm-A630 nm across a group of substances:
System: human retinal vascular endothelial cells (HRCEC)
Assay: MTT proliferation of human retinal vascular endothelial cells
Format: cell-based
Details: 100 μg/mL; HRCEC, 48 h, MTT
Where no end group is shown, it is not given here.
Give a plain numeric answer without units written out.

Below: 4 substances and their reported A570 nm-A630 nm.
substance	readout kind	test value
mPEG2-NHS40k-Arg-Gly-Ala-Asp-Arg-Ala-Gly-Gly-Gly-Gly-Arg-Gly-Asp ({mPEG2‑NHS 40 kDa}-RGADRAGGGGRGD) [mPEG2-NHS40k-HM-1]	A570 nm-A630 nm	0.6363
mPEG-ALD20k-Arg-Gly-Ala-Asp-Arg-Ala-Gly-Gly-Gly-Gly-Arg-Gly-Asp ({mPEG‑ALD 20 kDa}-RGADRAGGGGRGD) [mPEG-ALD20k-HM-1]	A570 nm-A630 nm	0.4175
mPEG-bALD20k-Arg-Gly-Ala-Asp-Arg-Ala-Gly-Gly-Gly-Gly-Arg-Gly-Asp ({mPEG‑bALD 20 kDa}-RGADRAGGGGRGD) [mPEG-bALD20k-HM-1]	A570 nm-A630 nm	0.4112
mPEG-bALD40k-Arg-Gly-Ala-Asp-Arg-Ala-Gly-Gly-Gly-Gly-Arg-Gly-Asp ({mPEG‑bALD 40 kDa}-RGADRAGGGGRGD) [mPEG-bALD40k-HM-1]	A570 nm-A630 nm	0.5988

Now take the following substance into account.
Exercise: Write down the reported A570 nm-A630 nm of mPEG-SC40k-Arg-Gly-Ala-Asp-Arg-Ala-Gly-Gly-Gly-Gly-Arg-Gly-Asp ({mPEG‑SC 40 kDa}-RGADRAGGGGRGD) [mPEG-SC40k-HM-1] , test system: human retinal vascular endothelial cells (HRCEC).
Key: 0.6139

---

Tested on: choroidal neovascularization in BN rats
Experiment: Laser-induced choroidal neovascularization in BN rats (FFA)
Type: in vivo, rat
Conditions: Day 3 after administration; 50 μg intravitreally once daily for 1 week (Table 53)
Where no end group is shown, it is not given here.
Form field: CNV Incidence rate (one value per entry).
The response must be a number in % with no trailing unit.

Consider the following illustrative entries.
substance	readout kind	test value
mPEG-SC10k-Arg-Gly-Ala-Asp-Arg-Ala-Gly-Gly-Gly-Gly-Arg-Gly-Asp ({mPEG‑SC 10 kDa}-RGADRAGGGGRGD) [mPEG-SC10k-HM-1]	CNV Incidence rate	49.66
mPEG-ALD10k-Arg-Gly-Ala-Asp-Arg-Ala-Gly-Gly-Gly-Gly-Arg-Gly-Asp ({mPEG‑ALD 10 kDa}-RGADRAGGGGRGD) [mPEG-ALD10k-HM-1]	CNV Incidence rate	48.62
mPEG2-NHS10k-Arg-Gly-Ala-Asp-Arg-Ala-Gly-Gly-Gly-Gly-Arg-Gly-Asp ({mPEG2‑NHS 10 kDa}-RGADRAGGGGRGD) [mPEG2-NHS10k-HM-1]	CNV Incidence rate	50.34

Here is another substance to look at.
Exercise: Returns the measured CNV Incidence rate for the input substance. Input: mPEG-bALD10k-Arg-Gly-Ala-Asp-Arg-Ala-Gly-Gly-Gly-Gly-Arg-Gly-Asp ({mPEG‑bALD 10 kDa}-RGADRAGGGGRGD) [mPEG-bALD10k-HM-1]
Key: 48.46
